- TEST_PROTOCOL: Solubility of the salt-forming type dyes (Tables 1-3)
- Assay type: physicochemical
- MEASUREMENT_PARAMETERS: solvent: ethanol
ATTRIBUTE_MEASURED: Solubility, Ethanol (g/100 ml)
The response must be a number in g/100 ml with no trailing unit.

Could you share which Solubility, Ethanol value was measured for O=P(O)(O)c1cccc(N=Nc2ccc(N=Nc3c(O)ccc4cc(S(=O)(=O)O)cc(S(=O)(=O)O)c34)cc2)c1 ?
10

Could you share which Solubility, Ethanol value was measured for CC1(C)Nc2cccc3c(N=Nc4cc(S(=O)(=O)O)cc5cc(S(=O)(=O)O)c(N=Nc6cccc(P(=O)(O)O)c6)c(O)c45)ccc(c23)N1 ?
10

Could you share which Solubility, Ethanol value was measured for Nc1ccc2cc(S(=O)(=O)O)c(N=Nc3ccc(N=Nc4cccc(P(=O)(O)O)c4)c4ccc(S(=O)(=O)O)cc34)c(O)c2c1 [Black No. 3] ?
5

Could you share which Solubility, Ethanol value was measured for COc1cc(N=Nc2cccc(P(=O)(O)O)c2)c(C)cc1N=Nc1c(S(=O)(=O)O)cc2ccc(N)cc2c1O [Black No. 2] ?
5

Could you share which Solubility, Ethanol value was measured for Nc1cc(N=Nc2cccc(P(=O)(O)O)c2)c2c(O)cc(S(=O)(=O)O)cc2c1N=Nc1cccc(P(=O)(O)O)c1 ?
3

Could you share which Solubility, Ethanol value was measured for COc1cc(N=Nc2cccc(P(=O)(O)O)c2)c(C)cc1N=Nc1c(S(=O)(=O)O)cc2cc(S(=O)(=O)O)cc(N)c2c1O ?
10

Values were extracted from patent US5290347A.
